Value source: paper PMC6212790

# SYSTEM_UNDER_TEST: GST-Rok-C97-191 (Bacillus subtilis subsp. subtilis str. …, UniProt O34857 97-191)
# Sequence: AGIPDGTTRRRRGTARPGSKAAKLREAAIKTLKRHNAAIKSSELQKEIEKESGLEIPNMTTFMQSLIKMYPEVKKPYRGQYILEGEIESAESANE
# METHOD: protein binding microarray; high values mean tight binding
# ASSAY_SETUP: protein: recombinant; tags: GST (pTH5325, pDEST15-Magic modified); dsDNA, one strand shown
Over roughly 33,000 sequences, “e-score” has its median near -0.038; the highest 2% begin near 0.33. Shown is part of a subset that was picked to be rich in the highest values.
PARAMETER_MEASURED: binding signal (E-score)
# value in E-score; strip the unit string

Query: Fill in: binding signal of `GAACTAGC` is ___
Reply: 0.205

Query: For the sequence `AAACTAGT` , what binding signal is on record?
Reply: 0.445

Query: Sample `CTGGGAAG` — what was its binding signal?
Reply: -0.0965

Query: Would you mind telling me what binding signal value was observed for `AAATGTAC` ?
Reply: 0.364

Query: Given the entry `ACCAACTA` , report its measured binding signal.
Reply: 0.161

Query: # get_value(readout='binding signal', item= `TAATGTAA` )
Reply: 0.357

Query: Entry `GAATGTAC` has what binding signal?
Reply: 0.304

###

# SYSTEM_UNDER_TEST: GST-Rok-C97-191 (Bacillus subtilis subsp. subtilis str. …, UniProt O34857 97-191)
# Sequence: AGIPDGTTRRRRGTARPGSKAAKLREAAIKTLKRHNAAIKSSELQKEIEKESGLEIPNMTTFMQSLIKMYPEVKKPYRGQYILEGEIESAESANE
# METHOD: protein binding microarray; high values mean tight binding
# ASSAY_SETUP: protein: recombinant; tags: GST (pTH5325, pDEST15-Magic modified); dsDNA, one strand shown
Over roughly 33,000 sequences, “e-score” has its median near -0.038; the highest 2% begin near 0.33. Shown is part of a subset that was picked to be rich in the highest values.
Field: binding signal. Provide a value for each of the sequences that follow.
Write down the numeric answer in E-score and omit the unit.

Query: Would you kindly share the measured binding signal for `CTGACGAA` ?
Reply: -0.0673

Query: // returns reported binding signal for input `CTAATTCC`
Reply: 0.159

Query: Entry `AGTAGATG` : reported binding signal = ?
Reply: 0.29

Query: Name the reported binding signal value associated with the sequence `ATAATTAG`
Reply: 0.354

Query: Please report the recorded binding signal for `CGCTTAGA` .
Reply: -0.0215

Query: I'd like to know its binding signal. The sequence in question is `AAATTTAA`
Reply: 0.299

Query: Given the sequence `ATACTGTA` , what is its reported binding signal?
Reply: 0.334

Query: May I ask what binding signal has been recorded for `GTCAGGAC` ?
Reply: -0.147

Query: Name the reported binding signal value associated with the sequence `ACGGGGAA`
Reply: 0.0307

Query: Would you mind telling me what binding signal value was observed for `CCAATTAC` ?
Reply: 0.0758

Query: Give the measured binding signal of `TTCCTCAA` .
Reply: 0.041

Query: What binding signal value was documented for this sequence, `ATTTTACC` ?
Reply: 0.322

Query: For the sequence shown here, `CTAGATCA` , give the reported binding signal.
Reply: 0.199

Query: Given `CTACTGTA` , state its recorded binding signal.
Reply: 0.384

Query: What does the data say about its binding signal? Entry: `GCGATATA`
Reply: 0.282

Query: Could you share which binding signal value was measured for `CATTTACG` ?
Reply: 0.0408

Query: What value of binding signal has been reported for the following sequence? `GCGAGACC`
Reply: -0.114

Query: binding signal lookup needed for `CGTAGATA` , thanks.
Reply: 0.21

Query: Using the record for `AATTTACG` , report its binding signal.
Reply: 0.338

Query: Quick one: binding signal for `ATGCATAC` ?
Reply: 0.0643

Query: Query (sequence): `GTATTTAA` ; field requested: binding signal
Reply: 0.273

Query: I am curious: what binding signal value has been reported for `AATTTCAG` ?
Reply: 0.153

Query: Give its binding signal value. Item: `TTAATTAA`
Reply: 0.346

Query: What measured binding signal goes with `AGGTGAAG` ?
Reply: -0.109

Query: Which binding signal reading was recorded for the sequence `ACTGAAGG` ?
Reply: -0.0541

Query: Data request, read-out binding signal, for `GAATTTAA`
Reply: 0.124

Query: binding signal for `ATAATTAT` ?
Reply: 0.137

Query: Which binding signal value is on record for `AGCTATTA` ?
Reply: 0.315

Query: # get_value(readout='binding signal', item= `GTCGGTTA` )
Reply: 0.00256

Query: What does the data say about its binding signal? Entry: `CGTGGTCA`
Reply: -0.0431

Query: Item `GCGACCCA` has what recorded binding signal?
Reply: 0.134

Query: What measured binding signal goes with `GCTAGATA` ?
Reply: 0.288

Query: Tell me the measured binding signal of `ATACTGAA` , please.
Reply: 0.0579

Query: Find the recorded binding signal belonging to `CCTGGTTA` and report it.
Reply: 0.0123

Query: Suppose we examine the sequence `ATATTTTA` ; what binding signal value has been reported?
Reply: 0.384

Query: Data request, read-out binding signal, for `GTGATATA`
Reply: 0.245

Query: Name the reported binding signal value associated with the sequence `GTACTGTA`
Reply: 0.219

Query: // returns reported binding signal for input `CCGTTCTA`
Reply: 0.108

###

Task for the reader: assign each of the following sequences its reported binding signal.
# SYSTEM_UNDER_TEST: GST-Rok-C97-191 (Bacillus subtilis subsp. subtilis str. …, UniProt O34857 97-191)
# Sequence: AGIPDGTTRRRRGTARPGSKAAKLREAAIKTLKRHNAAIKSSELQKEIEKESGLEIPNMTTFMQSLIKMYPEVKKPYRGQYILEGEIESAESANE
# METHOD: protein binding microarray; Rok is a gene silencer of Bacillus subtilis; high values mean tight binding
# ASSAY_SETUP: protein: recombinant; tags: GST (pTH5325, pDEST15-Magic modified); dsDNA, one strand shown
The full ranking holds about 33,000 sequences; the median of “e-score” is about -0.038, and the highest 2% start at about 0.33. This excerpt belongs to a sample that is enriched for the highest values.
Please give a number only; it is taken to be in E-score.

Query: Provide the documented binding signal with GST-Rok-C97-191 (Bacillus subtilis subsp. subtilis str. …, UniProt O34857 97-191) as the system for `GACATATA`
Reply: 0.307

Query: Item `TATATGGA` with GST-Rok-C97-191 (Bacillus subtilis subsp. subtilis str. …, UniProt O34857 97-191) - binding signal?
Reply: 0.343

Query: Entry `AACATATA` , system GST-Rok-C97-191 (Bacillus subtilis subsp. subtilis str. …, UniProt O34857 97-191): what binding signal was measured?
Reply: 0.208

Query: Which binding signal is reported with GST-Rok-C97-191 (Bacillus subtilis subsp. subtilis str. …, UniProt O34857 97-191) for this entry: `GTTGTATA` ?
Reply: 0.351

Query: Notebook: pull reported binding signal for GST-Rok-C97-191 (Bacillus subtilis subsp. subtilis str. …, UniProt O34857 97-191), entry `CATACTAG`
Reply: 0.285

Query: Form: Entry = `GATGTAAA` | System = GST-Rok-C97-191 (Bacillus subtilis subsp. subtilis str. …, UniProt O34857 97-191) | binding signal = ____
Reply: 0.164

Query: # returns recorded binding signal (system: GST-Rok-C97-191 (Bacillus subtilis subsp. subtilis str. …, UniProt O34857 97-191)) for `AATGTATA`
Reply: 0.35

Query: I'm curious: which binding signal was measured for `AATACTAG` tested on GST-Rok-C97-191 (Bacillus subtilis subsp. subtilis str. …, UniProt O34857 97-191)?
Reply: 0.34

Query: Test system GST-Rok-C97-191 (Bacillus subtilis subsp. subtilis str. …, UniProt O34857 97-191); read-out binding signal; what value for `CACGATGA` ?
Reply: -0.103

Query: Missing value: binding signal, GST-Rok-C97-191 (Bacillus subtilis subsp. subtilis str. …, UniProt O34857 97-191), entry `CATACTAA` . Fill in?
Reply: 0.0976

Query: Recorded binding signal for `TACATATA` with GST-Rok-C97-191 (Bacillus subtilis subsp. subtilis str. …, UniProt O34857 97-191), please?
Reply: 0.349

Query: Entry `GATACTAC` , system GST-Rok-C97-191 (Bacillus subtilis subsp. subtilis str. …, UniProt O34857 97-191): what binding signal was measured?
Reply: 0.313

Query: Please state recorded binding signal (tested on GST-Rok-C97-191 (Bacillus subtilis subsp. subtilis str. …, UniProt O34857 97-191)) of `AATACTAC`
Reply: 0.383

Query: Any idea what binding signal came out for `AATACTAA` on GST-Rok-C97-191 (Bacillus subtilis subsp. subtilis str. …, UniProt O34857 97-191)?
Reply: 0.287

Query: Reported binding signal for GST-Rok-C97-191 (Bacillus subtilis subsp. subtilis str. …, UniProt O34857 97-191), given `AATGTAAA` ?
Reply: 0.329

Query: What binding signal appears in the records for this sequence with GST-Rok-C97-191 (Bacillus subtilis subsp. subtilis str. …, UniProt O34857 97-191)? `TATACTAA`
Reply: 0.382
